# Test system: Adjuvant Arthritis In Rats
# Assay procedure: Adjuvant-induced arthritis in rats (chronic inflammation accompanied by joint destruction)
# Assay type: in vivo, Royal Hart, Wistar strain rats
# Test settings: Rattus norvegicus, po, 336 h, read-out: % Inhibition of Swelling (primary lesion) Day 14
Everything with inhibition in vivo at 50 mg/kg lower than 50% is no; everything else, including exactly 50%, is yes.

As a guide, the following entries are already answered.
Compound smiles | Label value
CC(C)(C)CC(C)(C)Nc1nc(NC(C)(C)C)nc(N2CC3CCC(CC3)C2)n1 | no
CCCCNc1nc(N2CC3CCC(CC3)C2)nc(N2CC3CCC(CC3)C2)n1 | no

Query: Decide: inhibition in vivo at 50 mg/kg of CC(C)(C)CC(C)(C)Nc1nc(Nc2ccc(F)cc2)nc(N2CC3CCC(CC3)C2)n1 >= 50%?
Response: no

Query: Has CC(C)(C)C(C)(C)Nc1nc(NC(C)(C)C(C)(C)C)nc(N2CC3CCC(CC3)C2)n1 a recorded inhibition in vivo at 50 mg/kg greater than or equal to 50%?
Response: yes

Query: Does the compound CC(C)(C)Nc1nc(NC(C)(C)C)nc(N2CC3CCC(CC3)C2)n1 have recorded inhibition in vivo at 50 mg/kg that is 50% or more?
Response: yes

Query: # check: inhibition in vivo at 50 mg/kg of CC(C)(C)CC(C)(C)Nc1nc(NC(C)(C)CC(C)(C)C)nc(N2CC3CCC(CC3)C2)n1 is greater than or equal to 50%
Response: yes

Query: Could you verify whether the entry CC(C)(C)CC(C)(C)Nc1nc(NC(C)(C)C(C)(C)C)nc(N2CC3CCC(CC3)C2)n1 shows inhibition in vivo at 50 mg/kg of no less than 50%?
Response: yes

###

I'd appreciate it if you could supply Mean Weight Gain (grams) Day 21 values for the items below.
# System: Adjuvant Arthritis In Rats
# Assay procedure: Adjuvant-induced arthritis in rats (chronic inflammation accompanied by joint destruction)
# Format: in vivo, Royal Hart, Wistar strain rats
# Test settings: oral 50 mg./kg. once daily days 0-13; Day 21
Remember to put the unit after the number in your answer.

Observe how each entry below is paired with its result.
Compound | Result
CC(C)(C)CC(C)(C)Nc1nc(NC(C)(C)C)nc(N2CC3CCC(CC3)C2)n1 | 87 grams
CC(C)(C)C(C)(C)Nc1nc(NC2C3CC4CC(C3)CC2C4)nc(NC(C)(C)C(C)(C)C)n1 (centres unmarked) | 181 grams

Quick request: Mean Weight Gain (grams) Day 21 for each listed item, please.
1. CC(C)(C)CC(C)(C)Nc1nc(NC(C)(C)C(C)(C)C)nc(N2CC3CCC(CC3)C2)n1
2. CC(C)(C)Nc1nc(NC(C)(C)C)nc(N2CC3CCC(CC3)C2)n1
3. CCCCNc1nc(N2CC3CCC(CC3)C2)nc(N2CC3CCC(CC3)C2)n1
4. CC(C)(C)C(C)(C)Nc1nc(NC(C)(C)C(C)(C)C)nc(N2CC3CCC(CC3)C2)n1

Response:
["91 grams", "69 grams", "107 grams", "58 grams"]

###

# System: Adjuvant Arthritis In Rats
# Assay procedure: Adjuvant-induced arthritis in rats (chronic inflammation accompanied by joint destruction)
# Type: in vivo, Royal Hart, Wistar strain rats
# Test settings: oral 50 mg./kg. once daily days 0-13; at 21 days
# Protocol: Groups of three Royal Hart, Wistar strain rats weighing 200±10 grams each were injected intradermally in the right hind paw with Freund's adjuvant (dried human tubercle bacilli in a mineral oil vehicle) at a dose of 2 mg./kg. of body weight. […] On the 14th and 21st day post challenge the diameter of the injected paw (primary lesion) was measured by micrometer caliper. […]
Measured property: Dead/Treated at 21 Days

Worked examples follow.
Compound | Dead/Treated at 21 Days
CC(C)(C)C(C)(C)Nc1nc(NC2C3CC4CC(C3)CC2C4)nc(NC(C)(C)C(C)(C)C)n1 (centres unmarked) | 1/3
CC(=O)Oc1ccccc1C(=O)O | 2/21
CC(C)(C)CC(C)(C)Nc1nc(NC(C)(C)CC(C)(C)C)nc(N2CC3CCC(CC3)C2)n1 | 2/18
CCCCNc1nc(N2CC3CCC(CC3)C2)nc(N2CC3CCC(CC3)C2)n1 | 2/12

With those in mind, consider the next compound.
Entry CC(C)(C)C(C)(C)Nc1nc(NC23CC4CC(CC(C4)C2)C3)nc(NC(C)(C)C(C)(C)C)n1 under Adjuvant Arthritis In Rats had Dead/Treated at 21 Days of 1/12
